viability, T/C: recorded values
tested on: 282377-053-R-J1-PDC complex spheroid viability; assay: Anticancer human tumor 282377-053-R-J1-PDC patient-derived colon adenocarcinoma cell line growth inhibition [RAS]; conditions: second compound 0.00949 µM; first compound 10 µM; hits give low values;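 also: spheroids exposed to agents for seven days before readout; luminescence viability as percent of DMSO vehicle control wells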
Write the answer as a number in %, unit excluded.

compound="Cc1nc(N2CCC3(CC2)COC(C)C3N)c(CO)nc1Sc1ccnc(N)c1Cl (configuration not stated) + CCn1c(-c2cccnc2C(C)OC)c2c3cc(ccc31)N1CCOC(CC(NC(=O)C(C(C)C)N(C)C(=O)C3(F)CCN(C(=O)C#CC(C)(C)N(C)C)CC3)C(=O)N3CCCC(N3)C(=O)OCC(C)(C)C2)C1" assay_result=110

Turning now to a further compound:
viability, T/C reading for CC(=O)OC12COC1CC(O)C1(C)C(=O)C(O)C3=C(C)C(OC(=O)C(O)C(NC(=O)OC(C)(C)C)c4ccccc4)CC(O)(C(OC(=O)c4ccccc4)C21)C3(C)C (configuration not stated) + CCn1c(-c2cccnc2C(C)OC)c2c3cc(ccc31)N1CCOC(CC(NC(=O)C(C(C)C)N(C)C(=O)C3(F)CCN(C(=O)C#CC(C)(C)N(C)C)CC3)C(=O)N3CCCC(N3)C(=O)OCC(C)(C)C2)C1 : 84.7

These entries and their values trace back to PubChem BioAssay AID2060905.
